- TESTED TARGET: human leukocyte elastase (Homo sapiens, UniProt P08246)
- Sequence (P08246 30-247 limits assumed): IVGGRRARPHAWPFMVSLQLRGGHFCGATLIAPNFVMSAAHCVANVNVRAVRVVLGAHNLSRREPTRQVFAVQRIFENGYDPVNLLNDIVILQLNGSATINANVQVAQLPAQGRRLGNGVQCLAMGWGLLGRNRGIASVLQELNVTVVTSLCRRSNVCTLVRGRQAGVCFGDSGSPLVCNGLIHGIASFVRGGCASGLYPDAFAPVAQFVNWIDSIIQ
- ASSAY PROTOCOL: Inactivation kinetics of human leukocyte elastase (chromogenic substrate MeOSuc-Ala2-Pro-Val-pNA)
- Format: biochemical
- CONDITION DESCRIPTION: TABLE 1; 25° C., pH 8.0; inactivation phase
EXPERIMENTAL ENDPOINT: Ki/KI or kobs/[I], LHE (M⁻¹ s⁻¹)

O=C(Oc1ccc(Cl)cn1)c1cc2cc(CCl)ccc2oc1=O 110
O=C(Oc1ccccn1)c1cc2cc(CCl)ccc2oc1=O 420
Cc1cccc(OC(=O)c2cc3cc(CCl)ccc3oc2=O)n1 200

[A] O=C(Oc1cccc(Cl)n1)c1cc2cc(CCl)ccc2oc1=O
[B] Cc1ccnc(OC(=O)c2cc3cc(CCl)ccc3oc2=O)c1
Query string: Two entries are listed, A and B . Which one carries the higher Ki/KI or kobs/[I], LHE? Kindly give the label for the entry you pick.
Result string: A
(A: 26000 M⁻¹ s⁻¹, B: 300 M⁻¹ s⁻¹)

###

- TESTED TARGET: human thrombin (Homo sapiens, UniProt P00734)
- Construct: human thrombin
- ASSAY PROTOCOL: Inactivation kinetics of human thrombin (chromogenic substrate H-D-Phe-Pip-Arg-pNA)
- Type: biochemical
- CONDITION DESCRIPTION: TABLE 1; 25° C., pH 7.5; inactivation phase; N.I. = non-inactivator
EXPERIMENTAL ENDPOINT: Ki/KI or kobs/[I], Thrombin (M⁻¹ s⁻¹)

[P] Cc1ccnc(OC(=O)c2cc3cc(CCl)ccc3oc2=O)c1
[Q] O=C(Oc1cccc(Cl)n1)c1cc2cc(CCl)ccc2oc1=O
Query string: Two entries are listed, P and Q . Which one carries the higher Ki/KI or kobs/[I], Thrombin? Kindly give the label for the entry you pick.
Result string: Q

###

- TESTED TARGET: bovine α-chymotrypsin (Bos taurus)
- Construct: bovine α-chymotrypsin
- ASSAY PROTOCOL: Inactivation kinetics of bovine α-chymotrypsin (chromogenic substrate Suc-Ala2-Pro-Phe-pNA)
- Format: biochemical
- CONDITION DESCRIPTION: TABLE 1, 2-pyridyl esters; 25° C., pH 7.5; N.I. = non-inactivator; read-out: Ki/KI or kobs/[I], α-CT
EXPERIMENTAL ENDPOINT: kinact/KI (M⁻¹ s⁻¹)

Worked examples, 2 molecules total:
MOLECULE	kinact/KI, M⁻¹ s⁻¹
O=C(Oc1ccccn1)c1cc2cc(CCl)ccc2oc1=O [Ic′″9]	1670
Cc1ccnc(OC(=O)c2cc3cc(CCl)ccc3oc2=O)c1 [Ic′″11]	5950

[A] O=C(Oc1cccc(Cl)n1)c1cc2cc(CCl)ccc2oc1=O [Ic′″12]
[B] Cc1cccc(OC(=O)c2cc3cc(CCl)ccc3oc2=O)n1 [Ic′″10]
Query string: Two entries are listed, A and B . Which one carries the higher kinact/KI? Kindly give the label for the entry you pick.
Result string: A
(A: 107000 M⁻¹ s⁻¹, B: 3300 M⁻¹ s⁻¹)
